Measured values drawn from patent US20210198277A1 for this set.

biological target: EHMT1 (Homo sapiens, UniProt Q9H9B1); experiment: EHMT1 enzyme assay on peptide substrate (EHMT1 PEP); format: biochemical; conditions: Table VII; read-out: EHMT1 PEP IC50
A collection of molecules and their measured IC50

MOLECULE	TARGET_OR_SYSTEM	IC50
CNCCNC(C)c1cc(Nc2nc(C)cc(NC)n2)ccc1OC (centres unmarked)	EHMT1 (Homo sapiens, UniProt Q9H9B1)	100 to 1000 nM

Give the measured IC50 of CNc1ccnc(Nc2ccc(OC)c(OC[C@@H](CN3CCCC3)OC)c2)n1 .
100 to 1000 nM

Give the measured IC50 of CCN(C)C[C@@H](O)COc1cc(Nc2nc(C)cc(NC)n2)ccc1OC .
< 100 nM

Give the measured IC50 of CNc1cc(C2CCOCC2)c2cc(OC)c(OC[C@H](O)CN3CCC3)cc2n1 .
< 100 nM

Give the measured IC50 of CNc1ccnc(Nc2ccc(OC)c(OC[C@H](O)CN3CCC3)c2)n1 [Compound 1093] .
< 100 nM

---

target: EHMT2 (Homo sapiens, UniProt Q96KQ7); construct: host or cells: MDA-MB-231; assay: MDA-MB-231 H3K9me2 in-cell Western assay (EHMT2 ICW); format: cell-based; conditions: Table VI; read-out: EHMT2 ICW IC50
Sequence (Q96KQ7 whole entry): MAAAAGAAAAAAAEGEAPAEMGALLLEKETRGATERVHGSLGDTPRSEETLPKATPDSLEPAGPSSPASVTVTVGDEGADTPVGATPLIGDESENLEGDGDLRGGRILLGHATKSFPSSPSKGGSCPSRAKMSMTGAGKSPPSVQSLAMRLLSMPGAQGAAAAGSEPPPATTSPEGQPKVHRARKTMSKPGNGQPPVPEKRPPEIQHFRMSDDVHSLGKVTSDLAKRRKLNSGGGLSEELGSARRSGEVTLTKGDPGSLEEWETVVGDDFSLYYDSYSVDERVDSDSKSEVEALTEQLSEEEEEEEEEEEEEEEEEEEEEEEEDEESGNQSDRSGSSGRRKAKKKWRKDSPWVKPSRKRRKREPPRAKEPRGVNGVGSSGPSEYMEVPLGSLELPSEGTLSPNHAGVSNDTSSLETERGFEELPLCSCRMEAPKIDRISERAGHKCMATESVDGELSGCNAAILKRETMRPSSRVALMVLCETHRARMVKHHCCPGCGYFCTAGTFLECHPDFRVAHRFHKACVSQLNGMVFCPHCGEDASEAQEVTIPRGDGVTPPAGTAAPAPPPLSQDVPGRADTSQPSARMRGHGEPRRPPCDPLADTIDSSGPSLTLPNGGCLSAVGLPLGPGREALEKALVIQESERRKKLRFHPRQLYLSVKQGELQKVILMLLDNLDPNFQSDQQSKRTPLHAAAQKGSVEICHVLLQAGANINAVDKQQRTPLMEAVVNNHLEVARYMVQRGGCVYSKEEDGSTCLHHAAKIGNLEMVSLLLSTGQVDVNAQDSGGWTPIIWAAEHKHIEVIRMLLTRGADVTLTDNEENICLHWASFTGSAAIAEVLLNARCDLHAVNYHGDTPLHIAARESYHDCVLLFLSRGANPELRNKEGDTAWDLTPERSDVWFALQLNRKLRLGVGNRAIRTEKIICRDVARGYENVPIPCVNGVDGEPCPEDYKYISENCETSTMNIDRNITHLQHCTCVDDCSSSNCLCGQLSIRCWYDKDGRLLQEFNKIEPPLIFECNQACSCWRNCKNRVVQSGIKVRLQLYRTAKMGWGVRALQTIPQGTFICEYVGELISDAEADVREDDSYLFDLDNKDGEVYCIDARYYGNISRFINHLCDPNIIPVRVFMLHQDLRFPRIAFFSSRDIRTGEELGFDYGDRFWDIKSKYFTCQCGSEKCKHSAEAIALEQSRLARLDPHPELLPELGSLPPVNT
pIC50: −log10 of the molar value.
ASSAY_ENDPOINT: pIC50

Before answering, review these 4 worked examples.
STRUCTURE_SMILES_STRING	VAL
CNc1cc(C)nc(Nc2cc(OCCCN3CCCC3)n3cnnc3c2)n1	< 5.00
COc1cc2c(C3CCN(C(C)C)CC3)cc(C)nc2nc1OCCCN1CCCC1	< 5.00
CNc1cc(C)nc(Nc2ccc(OC)c(CNCCN3CCCC3)c2)n1	6.00 to 7.00
CNc1cc(C)nc(Nc2ccc(OC)c(OC[C@@H](O)CN3CCCC3)c2)n1	6.00 to 7.00

Give the measured pIC50 of CCN1CC(NCc2cc(Nc3nc(C)cc(NC)n3)ccc2OC)C1 .
< 5.00

---

Target: EHMT2 (Homo sapiens)
Construct: host or cells: MDA-MB-231
Assay: MDA-MB-231 H3K9me2 in-cell Western assay (EHMT2 ICW)
Format: cell-based
Details: H3K9me2 in-cell Western, MDA-MB-231 cells; read-out: EHMT2 ICW (IC50 μM)
Description: RPMI/Glutamax medium, Penicillin-Streptomycin, Heat Inactivated Fetal Bovine Serum, and D-PBS were purchased from Life Technologies (Grand Island, N.Y., USA). […] Compound (100 nL) was added directly to 384-well cell plate. […] Plates were allowed to dry at room temperature then imaged on a Licor Odyssey Infrared Scanner (Licor Biosciences) which measured integrated intensity at 700 nm and 800 nm wavelengths. […] First, the ratio for each well was determined by: […]
ASSAY_ENDPOINT: IC50

COMPOUND	VAL
CNc1cc(C)nc(Nc2ccc(OC)c(OC[C@H]3CCCN(C4CC4)C3)c2)n1 [Compound 517b]	0.1 to 1 µM
COc1ccc(Nc2nc(C)cc(NC(C)C)n2)cc1OCCCN1CCCC1 [Compound 603]	0.1 to 1 µM
CCN1CC(COc2cc(Nc3cc(NC)cc(C)n3)cnc2OC)C1 [Compound 569]	0.1 to 1 µM
COc1ccc(Nc2nc(C)cc(NCC3CCOCC3)n2)cc1OCC1CCN(C2CC2)C1 (stereo not drawn) [Compound 462]	0.1 to 1 µM
COc1cc(NC2CCNCC2)ccc1OCCCN1CCCC1 [Compound 579]	> 10 µM

Give the measured IC50 of CNc1cc(C)nc(Nc2ccc(OC)c([C@H]3C[C@H]3CN(C)C)c2)n1 [Compound 488] .
0.1 to 1 µM

Give the measured IC50 of CNc1cc(C2CCOCC2)nc(Nc2ccc(OC)c(OCCCN3CCCC3)c2)n1 [Compound 459] .
> 10 µM

Give the measured IC50 of COc1cnc(Nc2cccc3cncn23)cc1OCCCN1CCCC1 [Compound 589] .
> 10 µM

Give the measured IC50 of CNc1cc(C)nc(Nc2ccc(OC)c(OC3CCN(C4CC4)CC3)c2)n1 [Compound 466] .
> 10 µM

---

A collection of molecules and their measured IC50
Target: EHMT1 (Homo sapiens, UniProt Q9H9B1)
Sequence (Q9H9B1 1-1298): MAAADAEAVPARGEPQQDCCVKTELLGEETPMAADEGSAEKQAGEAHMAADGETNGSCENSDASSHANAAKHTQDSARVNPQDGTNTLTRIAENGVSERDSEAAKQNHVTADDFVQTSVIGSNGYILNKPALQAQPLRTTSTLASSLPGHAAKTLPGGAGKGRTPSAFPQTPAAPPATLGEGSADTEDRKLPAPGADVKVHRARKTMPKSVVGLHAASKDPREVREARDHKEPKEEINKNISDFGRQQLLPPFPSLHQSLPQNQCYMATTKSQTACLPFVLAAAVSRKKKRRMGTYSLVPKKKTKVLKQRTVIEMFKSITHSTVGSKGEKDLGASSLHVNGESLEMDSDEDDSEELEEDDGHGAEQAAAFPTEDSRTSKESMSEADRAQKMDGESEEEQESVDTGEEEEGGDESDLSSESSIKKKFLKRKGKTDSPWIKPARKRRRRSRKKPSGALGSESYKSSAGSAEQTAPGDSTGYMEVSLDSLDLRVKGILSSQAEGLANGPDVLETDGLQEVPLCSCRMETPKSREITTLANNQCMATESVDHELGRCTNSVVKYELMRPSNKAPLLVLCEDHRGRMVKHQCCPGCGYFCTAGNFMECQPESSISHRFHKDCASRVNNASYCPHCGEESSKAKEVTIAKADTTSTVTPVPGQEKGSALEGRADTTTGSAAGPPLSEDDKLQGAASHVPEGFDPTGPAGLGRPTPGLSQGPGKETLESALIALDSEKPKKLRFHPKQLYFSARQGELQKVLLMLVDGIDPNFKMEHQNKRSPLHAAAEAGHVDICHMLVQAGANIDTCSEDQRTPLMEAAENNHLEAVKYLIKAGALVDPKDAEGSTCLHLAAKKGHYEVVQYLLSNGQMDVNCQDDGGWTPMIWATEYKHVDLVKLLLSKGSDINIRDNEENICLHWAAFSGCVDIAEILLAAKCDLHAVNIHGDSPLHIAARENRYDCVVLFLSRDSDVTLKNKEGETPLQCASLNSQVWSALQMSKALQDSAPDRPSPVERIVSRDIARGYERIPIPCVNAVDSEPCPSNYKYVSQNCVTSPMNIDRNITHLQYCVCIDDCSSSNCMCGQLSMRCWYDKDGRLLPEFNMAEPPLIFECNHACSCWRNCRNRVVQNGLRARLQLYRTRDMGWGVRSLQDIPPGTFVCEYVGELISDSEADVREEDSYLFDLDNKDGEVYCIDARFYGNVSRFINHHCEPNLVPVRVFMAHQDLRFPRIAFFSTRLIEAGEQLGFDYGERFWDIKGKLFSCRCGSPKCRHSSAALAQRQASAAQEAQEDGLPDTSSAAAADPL
Assay: EHMT1 enzyme assay on peptide substrate (EHMT1 PEP)
Format: biochemical
Conditions: Table II; read-out: EHMT1 PEP (IC50 μM)

MOLECULE	IC50
COc1ccc(Nc2nccc(N3CCN(c4ccccn4)CC3)n2)cc1OCCCN1CCCC1	> 10 µM
CNc1nc(Nc2ccc(OC)c(OCCCN3CCCC3)c2)nc(C)c1F	0.1 to 1 µM
COc1ccc(Nc2nccc(N3CCCN(C(C)=O)CC3)n2)cc1OCCCN1CCCC1	> 10 µM
COCCN(C)c1ccnc(Nc2ccc(OC)c(OCCCN3CCCC3)c2)n1	> 10 µM
COc1ccc(Nc2nccc(NC3CCS(=O)(=O)CC3)n2)cc1OCCCN1CCCC1	1 to 10 µM

Give the measured IC50 of COc1ccc(Nc2nccc(NC(C)(C)C)n2)cc1OCCCN1CCCC1 .
0.1 to 1 µM

Give the measured IC50 of CNc1ccnc(Nc2ccc(OC)c(OCCCN3CCCC3)c2)c1 .
0.1 to 1 µM

Give the measured IC50 of COc1ccc(Nc2nccc(NCCc3ccncc3)n2)cc1OCCCN1CCCC1 .
< 0.1 µM

Give the measured IC50 of COc1ccc(OCCCN2CCCC2)cc1Nc1nccc(NCC2CCOCC2)n1 .
> 10 µM

Give the measured IC50 of COc1ccc(Nc2nccc(N3CCCOCC3)n2)cc1OCCCN1CCCC1 .
> 10 µM

Give the measured IC50 of COc1ccc(Nc2nccc(NCC3CCN(C(C)C)CC3)n2)cc1OCCCN1CCCC1 .
< 0.1 µM

Give the measured IC50 of CCCCNc1nccc(NCC2CCC(N)CC2)n1 (stereo not drawn) .
> 10 µM

Give the measured IC50 of COc1ccc(Nc2nccc(N3CCc4ncncc4C3)n2)cc1OCCCN1CCCC1 .
1 to 10 µM

Give the measured IC50 of COc1ccc(Nc2nccc(CNC3CCN(C)CC3)n2)cc1OCCCN1CCCC1 .
> 10 µM

Give the measured IC50 of COc1ccc(Nc2nccc(N3CCC(OC)CC3)n2)cc1OCCCN1CCCC1 .
> 10 µM

Give the measured IC50 of COc1ccc(Nc2nccc(NCC3CCN(C(C)=O)CC3)n2)cc1OCCC(=O)N1CCCC1 .
> 10 µM

Give the measured IC50 of CCCCNc1nccc(NC2CCC(NC(C)=O)CC2)n1 (stereo not drawn) .
> 10 µM

Give the measured IC50 of COc1ccc(Nc2nccc(CN(C)C3CCOCC3)n2)cc1OCCCN1CCCC1 .
> 10 µM
